molecular target: HLA-A*02:01; experiment: IEDB peptide-MHC binding, purified MHC/competitive/radioactivity; bounds were set here for any values at or beyond the usual limits of such assays; details: source organism: Hepatitis B virus
parameter measured: IC50 (µM)
Respond numerically; units are µM and should not be typed.

Request: Report IC50 for FLCKQYLNL please.
Response: 0.029

----------
target: HLA-B*40:01; assay: IEDB peptide-MHC binding, purified MHC/competitive/radioactivity; filed as Kd, often an IC50 or EC50 that approximates it; bounds were set here for any values at or beyond the usual limits of such assays; conditions: source organism: Dengue virus 2 Jamaica/1409/1983
Kd overview
Respond numerically; units are nM and should not be typed.

Recorded results for 2 sequences are shown here.
sequence chain | numeric result
VEMGEAAGI | 268
KEIGRMLNI | 216

Next sequence, please.
Request: Field: Kd (HLA-B*40:01). Entry: EERVILAGPM
Response: 2740

----------
molecular target: HLA-A*01:01; assay: IEDB peptide-MHC binding, purified MHC/competitive/radioactivity; filed as Kd, often an IC50 or EC50 that approximates it; bounds were set here for any values at or beyond the usual limits of such assays; conditions: source organism: Dengue virus 2 Jamaica/1409/1983
pKd overview
API: returns pKd as number; meaning -log10 of concentration in mol/L.

sequence chain | numeric result
QMSSGNLLF | 5.36

Request: Report pKd for LTSKELMMA please.
Response: 5.24

Request: Report pKd for YSDPLALKE please.
Response: 6.51

----------
molecular target: HLA-A*11:01; assay: IEDB peptide-MHC binding, purified MHC/competitive/radioactivity; filed as Kd, often an IC50 or EC50 that approximates it; bounds were set here for any values at or beyond the usual limits of such assays; settings: source organism: Dengue virus 3 Martinique/1243/1999
parameter measured: Kd (µM)
Respond numerically; units are µM and should not be typed.

sequence chain | target system | Kd / µM
VIYDSKFEK | HLA-A*11:01 | 0.0416

Request: Report Kd for AVVLMGLDK please.
Response: 2.47

----------
target: HLA-A*02:06; assay: IEDB peptide-MHC binding, purified MHC/competitive/radioactivity; filed as Kd, often an IC50 or EC50 that approximates it; bounds were set here for any values at or beyond the usual limits of such assays; conditions: source organism: Dengue virus 3 Singapore/8120/1995
parameter measured: Kd (µM)
Respond numerically; units are µM and should not be typed.

Request: Report Kd for MIAGVLFTF please.
Response: 0.0225

----------
Kd overview
target: HLA-B*40:01; experiment: IEDB peptide-MHC binding, purified MHC/competitive/radioactivity; filed as Kd, often an IC50 or EC50 that approximates it; bounds were set here for any values at or beyond the usual limits of such assays; settings: source organism: Lymphocytic choriomeningitis virus (strain Armstrong)
Respond numerically; units are µM and should not be typed.

Recorded results for 2 sequences are shown here.
sequence chain | Kd / µM
QEADNMITEM | 5.36
FENAILSMTI | 1.45

Request: Field: Kd (HLA-B*40:01). Entry: FENAILSMT
Response: 18.4

----------
biological target: HLA-A*03:01; experiment: IEDB peptide-MHC binding, purified MHC/competitive/fluorescence; filed as Kd, often an IC50 or EC50 that approximates it; bounds were set here for any values at or beyond the usual limits of such assays; settings: source organism: Toxoplasma gondii
parameter measured: pKd
API: returns pKd as number; meaning -log10 of concentration in mol/L.

Request: Report pKd for MTMLIKAFK please.
Response: 8.11

----------
biological target: HLA-A*02:01; test: IEDB peptide-MHC binding, purified MHC/competitive/radioactivity; filed as Kd, often an IC50 or EC50 that approximates it; bounds were set here for any values at or beyond the usual limits of such assays; conditions: source organism: Dengue virus 3 Sri Lanka/1266/2000
parameter measured: Kd (µM)
Respond numerically; units are µM and should not be typed.

sequence chain | unit symbol | numeric result
MIAGVFFTFV | µM | 0.0126

Next sequence, please.
Request: Report Kd for HMIAGVFFT please.
Response: 0.00901

----------
target: HLA-A*32:07; experiment: IEDB peptide-MHC binding, purified MHC/competitive/fluorescence; filed as Kd, often an IC50 or EC50 that approximates it; bounds were set here for any values at or beyond the usual limits of such assays; conditions: source organism: Salmonella enterica subsp. enterica serovar Typhi
parameter measured: Kd
Quick note: number first, unit second.

Request: Report Kd for KQLELFWVI please.
Response: 1.1 nM

----------
biological target: HLA-A*02:06; experiment: IEDB peptide-MHC binding, purified MHC/competitive/fluorescence; filed as Kd, often an IC50 or EC50 that approximates it; bounds were set here for any values at or beyond the usual limits of such assays; conditions: source organism: Corynebacterium glutamicum ATCC 13032
parameter measured: Kd

Request: Report Kd for FLPGQYMNI please.
Response: ≤ 0.1 nM

----------
target: HLA-A*24:02; assay: IEDB peptide-MHC binding, purified MHC/competitive/radioactivity; filed as Kd, often an IC50 or EC50 that approximates it; bounds were set here for any values at or beyond the usual limits of such assays; details: source organism: Mammarenavirus whitewaterense
parameter measured: Kd (µM)
Respond numerically; units are µM and should not be typed.

Request: Report Kd for AYTSSDDEI please.
Response: 4.87

Request: Report Kd for YQPESQKFI please.
Response: 8.48

----------
biological target: HLA-A*01:01; assay: IEDB peptide-MHC binding, purified MHC/direct/fluorescence; filed as Kd, often an IC50 or EC50 that approximates it; bounds were set here for any values at or beyond the usual limits of such assays; settings: source organism: Entamoeba histolytica
parameter measured: Kd

Request: Report Kd for KLMPGSIYV please.
Response: ≥ 20 µM

----------
target: HLA-B*27:05; experiment: IEDB peptide-MHC binding, purified MHC/direct/fluorescence; filed as Kd, often an IC50 or EC50 that approximates it; bounds were set here for any values at or beyond the usual limits of such assays; settings: source organism: Camelpox virus CMS
pKd: −log10 of the molar value.
parameter measured: pKd

Request: Field: pKd (HLA-B*27:05). Entry: REVFYFGKF
Response: ≤ 4.70

----------
molecular target: HLA-B*57:01; assay: IEDB peptide-MHC binding, purified MHC/direct/fluorescence; filed as Kd, often an IC50 or EC50 that approximates it; bounds were set here for any values at or beyond the usual limits of such assays; details: source organism: Mycobacterium tuberculosis str. Haarlem
parameter measured: Kd

Request: Report Kd for IMANRAQVL please.
Response: ≥ 20 µM

----------
pKd overview
biological target: HLA-B*18:01; test: IEDB peptide-MHC binding, purified MHC/competitive/radioactivity; filed as Kd, often an IC50 or EC50 that approximates it; bounds were set here for any values at or beyond the usual limits of such assays; conditions: source organism: Lymphocytic choriomeningitis virus (strain Armstrong)
API: returns pKd as number; meaning -log10 of concentration in mol/L.

Recorded results for 2 sequences are shown here.
sequence chain | pKd
FENAILSMT | 5.48
QEADNMITEM | 5.83

Request: Report pKd for FENAILSMTI please.
Response: 6.90

----------
biological target: HLA-B*51:01; test: IEDB peptide-MHC binding, purified MHC/direct/fluorescence; filed as Kd, often an IC50 or EC50 that approximates it; bounds were set here for any values at or beyond the usual limits of such assays; conditions: source organism: Giardia lamblia ATCC 50803
parameter measured: Kd

Request: Report Kd for MHDPHSIPL please.
Response: ≥ 20 µM

----------
molecular target: HLA-A*68:01; assay: IEDB peptide-MHC binding, purified MHC/competitive/radioactivity; filed as Kd, often an IC50 or EC50 that approximates it; bounds were set here for any values at or beyond the usual limits of such assays; details: source organism: Dengue virus 3 Martinique/1243/1999
parameter measured: Kd (nM)
Respond numerically; units are nM and should not be typed.

Request: Report Kd for NTPECPSASR please.
Response: 4.83

----------
target: HLA-B*15:42; test: IEDB peptide-MHC binding, purified MHC/competitive/fluorescence; filed as Kd, often an IC50 or EC50 that approximates it; bounds were set here for any values at or beyond the usual limits of such assays; settings: source organism: Cryptosporidium parvum Iowa II
pKd: −log10 of the molar value.
parameter measured: pKd

Request: Report pKd for VGYYTFHPK please.
Response: ≤ 5.30

----------
target: HLA-A*30:01; test: IEDB peptide-MHC binding, purified MHC/direct/fluorescence; filed as Kd, often an IC50 or EC50 that approximates it; bounds were set here for any values at or beyond the usual limits of such assays; settings: source organism: Salmonella enterica subsp. enterica serovar Choleraesuis str. SC-B67
parameter measured: pKd
API: returns pKd as number; meaning -log10 of concentration in mol/L.

Request: Report pKd for RTAKVRAFH please.
Response: 7.49

----------
target: HLA-A*69:01; experiment: IEDB peptide-MHC binding, purified MHC/direct/fluorescence; filed as Kd, often an IC50 or EC50 that approximates it; bounds were set here for any values at or beyond the usual limits of such assays; settings: source organism: Influenza A virus (A/chicken/Thailand/LV1NF/2004(H5N1))
pKd: −log10 of the molar value.
parameter measured: pKd

Request: Report pKd for EMIWDPNGW please.
Response: ≤ 4.70
